biological target: S1P receptor 1 (S1PR1) (Homo sapiens); test: S1PR1 protein expression in HPAEC by Western blot; assay type: cell-based; set-up: Cells were collected and S1PR1 expression level was detected by Western blot; endogenous in cells; host or cells: HPAEC (human pulmonary artery endothelial cells); conditions: 1 μM (SEW2871 10 μM), 4 h
Sequence (P21453 whole entry): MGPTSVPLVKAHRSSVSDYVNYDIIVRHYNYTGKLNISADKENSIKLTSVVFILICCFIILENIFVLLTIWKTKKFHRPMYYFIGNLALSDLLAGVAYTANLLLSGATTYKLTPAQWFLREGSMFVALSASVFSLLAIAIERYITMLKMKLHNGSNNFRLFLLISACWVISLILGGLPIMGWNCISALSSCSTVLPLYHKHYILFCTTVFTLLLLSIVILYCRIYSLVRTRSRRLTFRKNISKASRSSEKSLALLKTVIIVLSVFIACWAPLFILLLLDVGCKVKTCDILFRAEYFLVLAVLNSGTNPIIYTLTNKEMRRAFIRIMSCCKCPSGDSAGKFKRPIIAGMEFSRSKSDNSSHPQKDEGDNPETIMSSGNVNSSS
quantityName: S1PR1 expression level compared to control (%)
# output: bare number, implied unit %

| compound | targetOfAssay | measValue |
| --- | --- | --- |
| CCCCCCCCc1ccc(CC[C@](N)(CO)CCP(=O)(O)O)cc1 [1R] | S1P receptor 1 (S1PR1) (Homo sapiens) | 47.2 |
| CCCCCCCCc1ccc(CCC(N)(CO)CO)cc1 [FTY720] | S1P receptor 1 (S1PR1) (Homo sapiens) | 35.0 |
| FC(F)(F)c1cccc(-c2noc(-c3cc(-c4ccccc4)c(C(F)(F)F)s3)n2)c1 [SEW2871] | S1P receptor 1 (S1PR1) (Homo sapiens) | 30.3 |
| CCCCCCCCc1ccc(CC[C@@](N)(CO)CCP(=O)(O)O)cc1 [1S] | S1P receptor 1 (S1PR1) (Homo sapiens) | 87.6 |

In the following, a different compound is considered.
// lookup S1PR1 expression level compared to control for CCCCCCCCCCCCC/C=C/[C@@H](O)[C@@H](N)COP(=O)(O)O [S1P, sphingosine 1 phosphate]
38.1
